The entries below are paired with their reported pest or weed control at 125 g/ha.
# Test system: barnyardgrass (Echinochloa crus-galli)
# Assay explanation: Test A preemergence, directed soil spray, visual injury rating
# Format: in vivo
# Run conditions: Echinochloa crus-galli, pre-emergence, 240 h, 125 g ai/ha, 0 is no effect, 100 is complete control, read-out: Plant response rating (0 to 100 scale), Barnyardgrass

Smiles str | Tested system | pest or weed control at 125 g/ha (%)
Cc1ccc2sccc2c1-c1c(O)c(C)nn(C)c1=O | barnyardgrass (Echinochloa crus-galli) | 10
CC(=O)Oc1c(C)nn(C)c(=O)c1-c1c(C)ccc2cc(C)oc12 | barnyardgrass (Echinochloa crus-galli) | 50
Cc1cc2ccc(C)c(-c3c(O)c(C)nn(C)c3=O)c2o1 | barnyardgrass (Echinochloa crus-galli) | 80
CC(=O)Oc1c(C)nn(C)c(=O)c1-c1cccc2cc(C)oc12 | barnyardgrass (Echinochloa crus-galli) | 20
COc1c(C)nn(C)c(=O)c1-c1ccc(F)c2ccoc12 | barnyardgrass (Echinochloa crus-galli) | 0

====

# System: foxtail, giant (giant foxtail, Setaria faberii)
# Assay explanation: Test A postemergence application, visual injury rating
# Type: in vivo
# Run conditions: Setaria faberi, post-emergence, 240 h, 125 g ai/ha, 0 to 100 scale, 0 no effect, 100 complete control, read-out: Foxtail, Giant plant response rating

Compound | Units of measure | pest or weed control at 125 g/ha
Cc1cc2ccc(C)c(-c3c(O)c(C)nn(C)c3=O)c2o1 [Compound 10] | % | 80
Cc1nn(C)c(=O)c(-c2cccc3snc(C)c23)c1O [Compound 25] | % | 30
CC(=O)Oc1c(C)nn(C)c(=O)c1-c1c(C)ccc2cc(C)oc12 [Compound 11] | % | 60
CC(=O)Oc1c(C)nn(C)c(=O)c1-c1cccc2cc(C)oc12 [Compound 13] | % | 30
Cc1nn(C)c(=O)c(-c2ccc(F)c3ccoc23)c1O [Compound 68] | % | 20

====

Parameter: Foxtail, Giant plant response rating. Scope: all listed entries.
# Tested on: foxtail, giant (giant foxtail, Setaria faberii)
# Assay explanation: Test A postemergence application, visual injury rating
# Type: in vivo
# Run conditions: 125 g ai/ha, 0 to 100 scale, 0 no effect, 100 complete control

Smiles str | Foxtail, Giant plant response rating
CCc1sc2ncccc2c1-c1c(OC(=O)C2CC2)c(C)nn(C)c1=O | 0
Cc1cnc2sc(C)c(-c3c(OC(=O)OC(C)C)c(C)nn(C)c3=O)c2c1 | 20
Cc1nn(C)c(=O)c(-c2ccc(Cl)c3sccc23)c1O | 0
COC(=O)Oc1c(C)nn(C)c(=O)c1-c1ccc(Cl)c2sccc12 | 0
COC(=O)Oc1c(C)nn(C)c(=O)c1-c1c(C)ccc2cc(C)oc12 | 50
Cc1nn(C)c(=O)c(-c2c(C)sc3ncccc23)c1OC(=O)C1CC1 | 0
Cc1nc2c(-c3c(O)c(C)nn(C)c3=O)cccc2s1 | 20
Cc1nn(C)c(=O)c(-c2cccc3sccc23)c1O | 0
COc1ncc(-c2c(O)c(C)nn(C)c2=O)c2ccccc12 | 0
Cc1nn(C)c(=O)c(-c2cccc3scnc23)c1O | 0
CCOC(=O)Oc1c(C)nn(C)c(=O)c1-c1c(CC)sc2ncccc12 | 0
CCC(=O)Oc1c(C)nn(C)c(=O)c1-c1ccc(Cl)c2ccsc12 | 0
CCC(=O)Oc1c(C)nn(C)c(=O)c1-c1ccc(Cl)c2oc(C)cc12 | 0
CC(=O)Oc1c(Cl)nn(C)c(=O)c1-c1cccc2cccnc12 | 30
Cc1cc2c(-c3c(O)c(C)nn(C)c3=O)ccc(Cl)c2o1 | 0
Cc1cnc2sc(C)c(-c3c(O)c(C)nn(C)c3=O)c2c1 | 0
CCC(=O)Oc1c(C)nn(C)c(=O)c1-c1c(C)ccc2sccc12 | 10
Cn1nc(Cl)c(O)c(-c2ccc(F)c3ccoc23)c1=O | 40
CC(=O)Oc1c(C)nn(C)c(=O)c1-c1ccc(Cl)c2ccsc12 | 0

====

# System: blackgrass (Alopecurus myosuroides)
# Assay explanation: Test A postemergence application, visual injury rating
# Format: in vivo
# Run conditions: Alopecurus myosuroides, post-emergence, 240 h, 500 g ai/ha, 0 to 100 scale, 0 no effect, 100 complete control, read-out: Blackgrass plant response rating
Reported pest or weed control at 500 g/ha values are given for each entry in this list.

Molecule | Tested system | pest or weed control at 500 g/ha, %
CC(=O)Oc1c(C)nn(C)c(=O)c1-c1c(C)ccc2cc(C)oc12 [Compound 11] | blackgrass (Alopecurus myosuroides) | 90
CC(=O)Oc1c(C)nn(C)c(=O)c1-c1cccc2cc(C)oc12 [Compound 13] | blackgrass (Alopecurus myosuroides) | 80
CCOC(=O)Oc1c(C)nn(C)c(=O)c1-c1c(C)ccc2sccc12 [Compound 30] | blackgrass (Alopecurus myosuroides) | 90
Cc1cc2ccc(C)c(-c3c(O)c(C)nn(C)c3=O)c2o1 [Compound 10] | blackgrass (Alopecurus myosuroides) | 90
Cc1nn(C)c(=O)c(-c2cccc3snc(C)c23)c1O [Compound 25] | blackgrass (Alopecurus myosuroides) | 30
Cc1cc2cccc(-c3c(O)c(C)nn(C)c3=O)c2o1 [Compound 12] | blackgrass (Alopecurus myosuroides) | 80
Cc1ccc2sccc2c1-c1c(O)c(C)nn(C)c1=O [Compound 29] | blackgrass (Alopecurus myosuroides) | 80

====

# System: ducksalad (Heteranthera limosa)
# Assay explanation: Test B flooded paddy test, visual rating
# Type: in vivo
# Run conditions: Flood, 250 g ai/ha, applied to paddy water, rated after 13 to 15 d
Ducksalad plant response rating (0 to 100 scale, 0 is no effect, 100 is complete control) by entry:
Measure name: Ducksalad plant response rating (0 to 100 scale, 0 is no effect, 100 is complete control)

Smiles str | Tested system | Numeric value
Cc1nn(C)c(=O)c(-c2c(Br)ccc3c2cnn3C)c1O | ducksalad (Heteranthera limosa) | 0
CCc1sc2ncccc2c1-c1c(OC(=O)C2CC2)c(C)nn(C)c1=O | ducksalad (Heteranthera limosa) | 0
CCC(=O)Oc1c(C)nn(C)c(=O)c1-c1c(C(F)(F)F)ccc2cc(C)oc12 | ducksalad (Heteranthera limosa) | 0
CC(=O)Oc1c(C)nn(C)c(=O)c1-c1ccc(Cl)c2sccc12 | ducksalad (Heteranthera limosa) | 0
Cc1cc2c(Cl)ccc(-c3c(OC(=O)c4ccccc4)c(C)nn(C)c3=O)c2o1 | ducksalad (Heteranthera limosa) | 50

====

# Test system: kochia (Kochia scoparia)
# Assay explanation: Test A preemergence, directed soil spray, visual injury rating
# Type: in vivo
# Run conditions: Bassia scoparia, pre-emergence, 240 h, 500 g ai/ha, 0 is no effect, 100 is complete control, read-out: Plant response rating (0 to 100 scale), Kochia
We begin with a simple list: items and their reported pest or weed control at 500 g/ha.
Measure name: pest or weed control at 500 g/ha

Compound | Tested system | Result
CC(=O)Oc1c(C)nn(C)c(=O)c1-c1c(C)ccc2cc(C)oc12 [Compound 11] | kochia (Kochia scoparia) | 100%
CCOC(=O)Oc1c(C)nn(C)c(=O)c1-c1c(C)ccc2sccc12 [Compound 30] | kochia (Kochia scoparia) | 80%
Cc1nn(C)c(=O)c(-c2cccc3snc(C)c23)c1O [Compound 25] | kochia (Kochia scoparia) | 100%
Cc1cc2cccc(-c3c(O)c(C)nn(C)c3=O)c2o1 [Compound 12] | kochia (Kochia scoparia) | 100%
Cc1ccc2sccc2c1-c1c(O)c(C)nn(C)c1=O [Compound 29] | kochia (Kochia scoparia) | 90%
CC(=O)Oc1c(C)nn(C)c(=O)c1-c1cccc2cc(C)oc12 [Compound 13] | kochia (Kochia scoparia) | 100%
Cc1cc2ccc(C)c(-c3c(O)c(C)nn(C)c3=O)c2o1 [Compound 10] | kochia (Kochia scoparia) | 100%

====

A collection of molecules and their measured Ragweed plant response rating
# Tested on: ragweed (common ragweed, Ambrosia elatior)
# Assay explanation: Test A postemergence application, visual injury rating
# Type: in vivo
# Run conditions: 31 g ai/ha, 0 to 100 scale, 0 no effect, 100 complete control
Measure name: Ragweed plant response rating

Molecule | Numeric value
CCC(=O)Oc1c(C)nn(C)c(=O)c1-c1ccc(Cl)c2ccsc12 [Compound 36] | 0
Cc1nn(C)c(=O)c(-c2ccc(Cl)c3sccc23)c1OC(=O)c1ccccc1 [Compound 57] | 0
Cn1ncc(O)c(-c2cccc3cnccc23)c1=O [Compound 34] | 0
Cc1nn(C)c(=O)c(-c2ccc(Cl)c3sc(Br)cc23)c1O [Compound 37] | 0
COC(=O)Oc1c(C)nn(C)c(=O)c1-c1cccc2cc(C)oc12 [Compound 28] | 20

====

# System: ragweed (common ragweed, Ambrosia elatior)
# Assay explanation: Test A preemergence, directed soil spray, visual injury rating
# Type: in vivo
# Run conditions: Ambrosia artemisiifolia, pre-emergence, 240 h, 125 g ai/ha, 0 is no effect, 100 is complete control, read-out: Plant response rating (0 to 100 scale), Ragweed
Item-by-item account of pest or weed control at 125 g/ha
Measure name: pest or weed control at 125 g/ha (%)

Smiles str | Numeric value
CC(=O)Oc1c(C)nn(C)c(=O)c1-c1c(C)ccc2cc(C)oc12 | 90
Cc1nn(C)c(=O)c(-c2ccc(F)c3ccoc23)c1O | 50
CC(=O)Oc1c(C)nn(C)c(=O)c1-c1cccc2cc(C)oc12 | 40
Cn1nc(Cl)c(O)c(-c2nccc3ccccc23)c1=O | 0
COc1c(C)nn(C)c(=O)c1-c1ccc(F)c2ccoc12 | 0
Cc1ccc2sccc2c1-c1c(O)c(C)nn(C)c1=O | 30
Cc1nn(C)c(=O)c(-c2cccc3snc(C)c23)c1O | 40
Cc1cc2cccc(-c3c(O)c(C)nn(C)c3=O)c2o1 | 60
Cc1cc2ccc(C)c(-c3c(O)c(C)nn(C)c3=O)c2o1 | 90
CCOC(=O)Oc1c(C)nn(C)c(=O)c1-c1c(C)ccc2sccc12 | 20
